Every entry's value here was drawn from patent US20120276102A1.

// values below are reported Human IL-21R-TF1 Neutralization IC50
- System tested: human IL-21R expressed on cells (human, UniProt Q9HBE5 20-538)
- Sequence (Q9HBE5 20-538 limits assumed): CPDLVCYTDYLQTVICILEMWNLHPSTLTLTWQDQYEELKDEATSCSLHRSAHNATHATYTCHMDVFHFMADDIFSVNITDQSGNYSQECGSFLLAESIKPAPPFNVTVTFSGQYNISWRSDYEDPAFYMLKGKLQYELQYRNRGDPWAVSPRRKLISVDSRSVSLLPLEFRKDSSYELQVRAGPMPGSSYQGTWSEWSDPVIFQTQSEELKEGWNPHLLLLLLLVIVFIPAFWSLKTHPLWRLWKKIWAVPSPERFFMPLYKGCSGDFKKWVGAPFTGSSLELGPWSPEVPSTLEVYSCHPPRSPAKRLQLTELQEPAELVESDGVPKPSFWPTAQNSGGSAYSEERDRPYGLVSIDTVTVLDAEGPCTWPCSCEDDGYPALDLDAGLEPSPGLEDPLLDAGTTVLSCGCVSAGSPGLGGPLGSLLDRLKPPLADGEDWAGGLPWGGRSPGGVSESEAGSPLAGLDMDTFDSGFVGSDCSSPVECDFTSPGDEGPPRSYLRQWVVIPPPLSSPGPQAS
- Measurement notes: cell-based or functional assay
State the answer as a number, implicitly in nM.

Binder	Measured result
AbT (antibody, human IgG1, V domains shown, CDR3 graft, residue limits derived as for m29; also called VHP/VL9; VHPTM/VL9) VH: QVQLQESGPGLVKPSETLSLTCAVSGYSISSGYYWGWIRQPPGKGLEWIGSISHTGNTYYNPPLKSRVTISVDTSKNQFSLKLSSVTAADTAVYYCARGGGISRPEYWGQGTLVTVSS VL: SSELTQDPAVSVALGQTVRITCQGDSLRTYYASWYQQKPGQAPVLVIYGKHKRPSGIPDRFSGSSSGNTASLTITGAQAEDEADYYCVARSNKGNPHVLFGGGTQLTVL	2.32
AbS (antibody, V domains shown, CDR3 graft, residue limits derived as for m29; also called VHP/VL6; VHPTM/VL6) VH: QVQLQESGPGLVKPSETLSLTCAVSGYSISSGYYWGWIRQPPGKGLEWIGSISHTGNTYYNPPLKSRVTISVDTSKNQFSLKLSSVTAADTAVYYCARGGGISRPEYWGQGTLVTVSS VL: SSELTQDPAVSVALGQTVRITCQGDSLRTYYASWYQQKPGQAPVLVIYGKHKRPSGIPDRFSGSSSGNTASLTITGAQAEDEADYYCMSRSIWGNPHVLFGGGTQLTVL	6.67
AbR (antibody, human IgG1, V domains shown, CDR3 graft, residue limits derived as for m29; also called VH3/VL18; VH3DM/VL18) VH: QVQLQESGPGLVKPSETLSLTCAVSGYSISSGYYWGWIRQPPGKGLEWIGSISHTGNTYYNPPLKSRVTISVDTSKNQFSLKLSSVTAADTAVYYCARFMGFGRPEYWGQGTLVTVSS VL: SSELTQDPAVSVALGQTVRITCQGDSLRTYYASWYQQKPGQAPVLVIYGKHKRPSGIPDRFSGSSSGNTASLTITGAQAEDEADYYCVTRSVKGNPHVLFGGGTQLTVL	1.63

With those in mind, consider the next binder.
Fill in: Human IL-21R-TF1 Neutralization IC50 of parental 18A5 antibody (antibody, V domains shown, also called 18A5 IgG) VH: QVQLQESGPGLVKTSETLSLTCAVSGYSISSGYYWGWIRQPPGKGLEWIGSISHTGNTYYNPPLKSRVTISVDTSKNQFSLKLSSVTAADTAVYYCARGGGISRPEYWGKGTLVTVSS VL: SSELTQDPPVSVALGQTVTLTCQGDSLRTYYASWYQQKSGQAPILLLYGKHKRPSGIPDRFSGSTSGDTASLTITGAQAEDEADYYCNSRDSSGNPHVLFGGGTQLTVL is ___
14
